Data origin: ChEMBL document CHEMBL3124777

tested on: Fusarium verticillioides; experiment: Antimicrobial activity against Fusarium moniliforme NRRL 1866 after 48 to 72 hrs by microbroth dilution method; type: functional
measurement-kind: MIC (µg/mL)

| compound-string | display-unit | MIC |
| --- | --- | --- |
| Cc1ccc(-c2cs/c(=N/NC(=O)CSc3nnc(C)s3)n2-c2ccccc2)cc1 | µg/mL | 250 |
| COc1ccc(-c2cs/c(=N/NC(=O)CSc3nnnn3C)n2-c2ccccc2)cc1 | µg/mL | 250 |
| Cc1nnc(SCC(=O)N/N=c2/scc(-c3ccc(C#N)cc3)n2-c2ccccc2)s1 | µg/mL | 250 |
| Cc1nnc(SCC(=O)N/N=c2/scc(-c3ccc([N+](=O)[O-])cc3)n2-c2ccccc2)s1 | µg/mL | 250 |
| O=C(CSc1ncccn1)N/N=c1/scc(-c2ccc(F)cc2)n1-c1ccccc1 | µg/mL | 250 |
| COc1ccc(-c2cs/c(=N/NC(=O)CSc3nncn3C)n2-c2ccccc2)cc1 | µg/mL | 250 |
| Cn1nnnc1SCC(=O)N/N=c1/scc(-c2ccc(F)cc2)n1-c1ccccc1 | µg/mL | 250 |
| Cc1nnc(SCC(=O)N/N=c2/scc(-c3ccc(Br)cc3)n2-c2ccccc2)s1 | µg/mL | 250 |
| COc1ccc(-c2cs/c(=N/NC(=O)CSc3nnc(C)s3)n2-c2ccccc2)cc1 | µg/mL | 250 |
| Cn1cnnc1SCC(=O)N/N=c1/scc(-c2ccc(F)cc2)n1-c1ccccc1 | µg/mL | 250 |

* * *

test system: C6; test: Cytotoxicity against rat C6 cells assessed as cell viability at 100 ug/ml after 24 hrs by MTT assay relative to control; type: functional; details: C6, 24 h, read-out: Activity
Overview of reported viability at 100 µg/mL across a group of compounds:
Your answer is read as %, so omit the unit and give the number.

| compound-string | display-unit | viability at 100 µg/mL |
| --- | --- | --- |
| Cn1nnnc1SCC(=O)N/N=c1/scc(-c2ccccc2)n1-c1ccccc1 | % | 38.8 |
| O=C(CSc1nnnn1-c1ccccc1)N/N=c1/scc(-c2ccc(F)cc2)n1-c1ccccc1 | % | 35.8 |
| O=C(CSc1nnnn1-c1ccccc1)N/N=c1/scc(-c2ccccc2)n1-c1ccccc1 | % | 35.8 |
| Cn1cnnc1SCC(=O)N/N=c1/scc(-c2ccccc2)n1-c1ccccc1 | % | 38.6 |
| Cc1ccc(-c2cs/c(=N/NC(=O)CSc3nnnn3C)n2-c2ccccc2)cc1 | % | 39.7 |
| Cn1cnnc1SCC(=O)N/N=c1/scc(-c2ccc(C#N)cc2)n1-c1ccccc1 | % | 55.2 |

Recorded viability at 100 µg/mL (compound O=C(CSc1ncccn1)N/N=c1/scc(-c2ccc(Br)cc2)n1-c1ccccc1 ): 67.6

Note to self: viability at 100 µg/mL recorded for Cc1nnc(SCC(=O)N/N=c2/scc(-c3ccc(F)cc3)n2-c2ccccc2)s1 was 34.9

Value of viability at 100 µg/mL reported for the compound O=C(CSc1nnnn1-c1ccccc1)N/N=c1/scc(-c2ccc(Br)cc2)n1-c1ccccc1 is 24.3

response.value for O=C(CSc1ncccn1)N/N=c1/scc(-c2ccc(F)cc2)n1-c1ccccc1 (field: viability at 100 µg/mL) = 53.4

Item: N#Cc1ccc(-c2cs/c(=N/NC(=O)CSc3nnnn3-c3ccccc3)n2-c2ccccc2)cc1 | viability at 100 µg/mL: 59.8

* * *

test system: C6; test: Cytotoxicity against rat C6 cells assessed as cell viability at 50 ug/ml after 24 hrs by MTT assay relative to control; type: functional; conditions: C6, 24 h, read-out: Activity
Listed below: viability at 50 µg/mL values for each entry.
Respond numerically; units are % and should not be typed.

Some entries whose results are on file:
| compound-string | display-unit | viability at 50 µg/mL |
| --- | --- | --- |
| O=C(CSc1ncccn1)N/N=c1/scc(-c2ccc(Cl)cc2)n1-c1ccccc1 | % | 61.8 |
| Cn1cnnc1SCC(=O)N/N=c1/scc(-c2ccc(C#N)cc2)n1-c1ccccc1 | % | 58.8 |
| Cc1ccc(-c2cs/c(=N/NC(=O)CSc3ncccn3)n2-c2ccccc2)cc1 | % | 64.4 |
| Cc1ccc(-c2cs/c(=N/NC(=O)CSc3nnnn3-c3ccccc3)n2-c2ccccc2)cc1 | % | 29.5 |
| Cn1nnnc1SCC(=O)N/N=c1/scc(-c2ccc([N+](=O)[O-])cc2)n1-c1ccccc1 | % | 69.2 |
| O=C(CSc1ncccn1)N/N=c1/scc(-c2ccc(Br)cc2)n1-c1ccccc1 | % | 69 |
| O=C(CSc1nnnn1-c1ccccc1)N/N=c1/scc(-c2ccc(Br)cc2)n1-c1ccccc1 | % | 32 |
| Cc1nnc(SCC(=O)N/N=c2/scc(-c3ccccc3)n2-c2ccccc2)s1 | % | 63.9 |

Query Cc1ccc(-c2cs/c(=N/NC(=O)CSc3nnc(C)s3)n2-c2ccccc2)cc1 yields viability at 50 µg/mL of 40.6

Measured viability at 50 µg/mL, COc1ccc(-c2cs/c(=N/NC(=O)CSc3ncccn3)n2-c2ccccc2)cc1 : 66.5

* * *

tested on: C6; experiment: Cytotoxicity against rat C6 cells after 24 hrs by MTT assay; assay type: functional, cell-based; conditions: C6, 24 h
measurement-kind: IC50 (µg/mL)
Answer with a number only, understood to be in µg/mL.

Short answer for Cc1ccc(-c2cs/c(=N/NC(=O)CSc3nnnn3-c3ccccc3)n2-c2ccccc2)cc1 : IC50 was 14.7

Query Cc1ccc(-c2cs/c(=N/NC(=O)CSc3nncn3C)n2-c2ccccc2)cc1 yields IC50 of 56

Cc1ccc(-c2cs/c(=N/NC(=O)CSc3nnc(C)s3)n2-c2ccccc2)cc1 has a reported IC50 of 25.3

The reported IC50 of the compound Cc1nnc(SCC(=O)N/N=c2/scc(-c3ccc(Cl)cc3)n2-c2ccccc2)s1 was 28

For Cn1nnnc1SCC(=O)N/N=c1/scc(-c2ccccc2)n1-c1ccccc1 the compound record lists IC50 as 67.7

Item: O=C(CSc1nnnn1-c1ccccc1)N/N=c1/scc(-c2ccccc2)n1-c1ccccc1 | IC50: 8.3

Value of measured IC50 for the entry COc1ccc(-c2cs/c(=N/NC(=O)CSc3nnc(C)s3)n2-c2ccccc2)cc1 : 18.7

* * *

Here, each record is paired with measured viability at 6 µg/mL data.
system: C6; assay: Cytotoxicity against rat C6 cells assessed as cell viability at 6 ug/ml after 24 hrs by MTT assay relative to control; assay type: functional; conditions: C6, 24 h, read-out: Activity
Give the number; % is assumed, so skip it.

| compound-string | display-unit | viability at 6 µg/mL |
| --- | --- | --- |
| Cc1nnc(SCC(=O)N/N=c2/scc(-c3ccc(F)cc3)n2-c2ccccc2)s1 | % | 74.3 |

Summary for this compound, Cn1nnnc1SCC(=O)N/N=c1/scc(-c2ccc([N+](=O)[O-])cc2)n1-c1ccccc1 : viability at 6 µg/mL is 80.4

get_value(item= O=C(CSc1ncccn1)N/N=c1/scc(-c2ccc(Cl)cc2)n1-c1ccccc1 , readout=viability at 6 µg/mL) returns 95.9

* * *

tested on: Trichoderma harzianum; test: Antimicrobial activity against Trichoderma harzianum NRRL 20565 after 48 to 72 hrs by microbroth dilution method; format: functional
measurement-kind: MIC (µg/mL)

| compound-string | display-unit | MIC |
| --- | --- | --- |
| O=C(CSc1ncccn1)N/N=c1/scc(-c2ccc(F)cc2)n1-c1ccccc1 | µg/mL | 250 |
| Cc1nnc(SCC(=O)N/N=c2/scc(-c3ccccc3)n2-c2ccccc2)s1 | µg/mL | 125 |
| Cn1nnnc1SCC(=O)N/N=c1/scc(-c2ccc([N+](=O)[O-])cc2)n1-c1ccccc1 | µg/mL | 125 |
| O=C(CSc1ncccn1)N/N=c1/scc(-c2ccccc2)n1-c1ccccc1 | µg/mL | 250 |
| O=C(CSc1nnnn1-c1ccccc1)N/N=c1/scc(-c2ccc(Cl)cc2)n1-c1ccccc1 | µg/mL | 125 |

(P) Cc1nnc(SCC(=O)N/N=c2/scc(-c3ccc(C#N)cc3)n2-c2ccccc2)s1
(Q) O=C(CSc1ncccn1)N/N=c1/scc(-c2ccc(Br)cc2)n1-c1ccccc1
Asked: Identify the item whose MIC is the smaller number: P or Q Record your answer as the label of the chosen record.
Given back: P
(P: 125 µg/mL, Q: 250 µg/mL)

* * *

system: Trichoderma harzianum; experiment: Antimicrobial activity against Trichoderma harzianum NRRL 20565 after 48 to 72 hrs by microbroth dilution method; type: functional
measurement-kind: MIC (µg/mL)

| compound-string | measurement-kind | recorded-measurement |
| --- | --- | --- |
| Cn1nnnc1SCC(=O)N/N=c1/scc(-c2ccc(Cl)cc2)n1-c1ccccc1 | MIC | 250 |
| Cc1ccc(-c2cs/c(=N/NC(=O)CSc3nnnn3-c3ccccc3)n2-c2ccccc2)cc1 | MIC | 125 |
| Cc1nnc(SCC(=O)N/N=c2/scc(-c3ccc(Br)cc3)n2-c2ccccc2)s1 | MIC | 125 |

(P) Cn1cnnc1SCC(=O)N/N=c1/scc(-c2ccc(Cl)cc2)n1-c1ccccc1
(Q) Cn1cnnc1SCC(=O)N/N=c1/scc(-c2ccc([N+](=O)[O-])cc2)n1-c1ccccc1
Asked: Consider entries P and Q . Which has the numerically lower MIC? Let me know the label of the one you choose.
Given back: P
(P: 125 µg/mL, Q: 250 µg/mL)

(a) N#Cc1ccc(-c2cs/c(=N/NC(=O)CSc3ncccn3)n2-c2ccccc2)cc1
(b) Cc1ccc(-c2cs/c(=N/NC(=O)CSc3nncn3C)n2-c2ccccc2)cc1
Asked: // pick larger MIC from pair: a vs b // return label of chosen record
Given back: a

(a) COc1ccc(-c2cs/c(=N/NC(=O)CSc3nnnn3C)n2-c2ccccc2)cc1
(b) Cc1nnc(SCC(=O)N/N=c2/scc(-c3ccc(Cl)cc3)n2-c2ccccc2)s1
Asked: // pick larger MIC from pair: a vs b Your answer should be the label of the entry you select.
Given back: a
